// reported mittels HPLC bestimmte spezifische Enzymaktivität (mU/mg Protein) A1 278/2 for each item listed
# System: UniProt:P15802
# Sequence (P15802 103-357 limits assumed): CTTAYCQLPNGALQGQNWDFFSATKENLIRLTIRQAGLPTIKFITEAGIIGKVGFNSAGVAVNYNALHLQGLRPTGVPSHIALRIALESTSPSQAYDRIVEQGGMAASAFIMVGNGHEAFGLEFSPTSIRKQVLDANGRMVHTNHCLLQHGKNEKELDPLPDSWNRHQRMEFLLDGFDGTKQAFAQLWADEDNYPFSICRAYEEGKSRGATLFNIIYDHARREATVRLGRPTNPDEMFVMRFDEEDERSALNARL
# Sequence (P15802 1-102 limits assumed): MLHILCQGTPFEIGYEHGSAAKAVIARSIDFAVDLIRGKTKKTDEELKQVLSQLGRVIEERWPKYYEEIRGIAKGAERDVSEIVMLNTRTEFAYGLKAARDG
# Test: Substrate specificity of purified PAT (fraction AL 278/2), specific enzyme activity by HPLC
# Type: biochemical, Penicillium chrysogenum P2/ATCC 48271
# Condition: labelled substance = Acylakzeptor; Acyldonator PaCoA
Endpoint: mittels HPLC bestimmte spezifische Enzymaktivität (mU/mg Protein) A1 278/2

Compound	System	Quantity unit	Test value
CC(=O)OCC1=C(C(=O)O)N2C(=O)[C@@H](NC(=O)CCC[C@@H](N)C(=O)O)[C@H]2SC1 [Cephalosporin C]	UniProt:P15802	mU/mg Protein	0
CC1(C)S[C@@H]2[C@H](NC(=O)CCC[C@H](N)C(=O)O)C(=O)N2[C@H]1C(=O)O [Isopenicillin N]	UniProt:P15802	mU/mg Protein	146
CC1(C)S[C@@H]2[C@H](NC(=O)Cc3ccccc3)C(=O)N2[C@H]1C(=O)O [Penicillin G]	UniProt:P15802	mU/mg Protein	25
CC(=O)OCC1=C(C(=O)O)N2C(=O)[C@@H](N)[C@H]2SC1 [7-ACA]	UniProt:P15802	mU/mg Protein	0
CC1=C(C(=O)O)N2C(=O)[C@@H](N)[C@H]2SC1 [7-ADCA, 7-Amino-3-desacetoxycephalosporansäure]	UniProt:P15802	mU/mg Protein	49
CC1(C)S[C@@H]2[C@H](N)C(=O)N2[C@H]1C(=O)O [6-APA, 6-Aminopenicillansäure]	UniProt:P15802	mU/mg Protein	393
